Exercise: for every item that follows, state its recorded pKi.
# assayed system: Furin (Homo sapiens)
# test protocol: Inhibition of human recombinant furin-dependent anthrax protective antigen processing
Bear in mind: pKi is minus log10 of a mol/L concentration; give just that figure.

Returns the measured pKi for the input molecule. Input: N=C(N)Nc1ccc(O[C@H]2C[C@@H](Oc3ccc(NC(=N)N)cn3)[C@H](NC(=N)N)C[C@@H]2NC(=N)N)nc1
7.38

Report pKi for N=C(N)Nc1ccc(NC(=O)O[C@H]2C[C@@H](OC(=O)Nc3ccc(NC(=N)N)cc3)[C@H](NC(=N)N)C[C@@H]2NC(=N)N)cc1 please.
6.09

Field request: pKi | item: N=C(N)Nc1ccccc1NC(=O)O[C@H]1C[C@@H](OC(=O)Nc2ccccc2NC(=N)N)[C@H](NC(=N)N)C[C@@H]1NC(=N)N
4.00

Quick one: pKi for NC(N)=Nc1ccc(O[C@@H]2C[C@H](Oc3ccc(N=C(N)N)cc3N=C(N)N)[C@@H](N=C(N)N)C[C@H]2N=C(N)N)cc1 ?
7.05

###

Could you please report measured Ki for the items listed next?
# assayed system: Furin (Homo sapiens, UniProt P09958)
# Sequence (P09958 whole entry): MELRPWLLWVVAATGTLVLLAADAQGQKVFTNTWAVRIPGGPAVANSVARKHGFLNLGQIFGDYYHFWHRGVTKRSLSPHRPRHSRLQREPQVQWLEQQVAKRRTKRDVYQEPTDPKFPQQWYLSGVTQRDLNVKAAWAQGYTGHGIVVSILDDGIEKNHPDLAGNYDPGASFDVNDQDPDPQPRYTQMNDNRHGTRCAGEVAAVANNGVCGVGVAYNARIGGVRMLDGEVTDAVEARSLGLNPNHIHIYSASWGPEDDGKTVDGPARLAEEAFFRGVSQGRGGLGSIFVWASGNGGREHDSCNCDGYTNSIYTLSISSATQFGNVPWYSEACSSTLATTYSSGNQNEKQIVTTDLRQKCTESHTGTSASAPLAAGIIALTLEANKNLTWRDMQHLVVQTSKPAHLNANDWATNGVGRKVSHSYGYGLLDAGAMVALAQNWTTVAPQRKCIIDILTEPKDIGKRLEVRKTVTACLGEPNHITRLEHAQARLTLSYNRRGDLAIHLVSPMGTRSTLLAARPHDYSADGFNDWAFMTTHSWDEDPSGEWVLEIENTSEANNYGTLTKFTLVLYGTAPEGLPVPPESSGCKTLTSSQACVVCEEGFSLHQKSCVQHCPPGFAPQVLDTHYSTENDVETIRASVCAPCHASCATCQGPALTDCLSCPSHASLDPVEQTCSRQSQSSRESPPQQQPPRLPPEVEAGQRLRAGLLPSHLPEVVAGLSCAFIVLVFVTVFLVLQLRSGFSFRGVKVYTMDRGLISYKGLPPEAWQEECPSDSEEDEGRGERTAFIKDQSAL
# test protocol: Inhibition of human recombinant furin-dependent anthrax protective antigen processing
Remember to follow the number with its unit.

Ki of N=C(N)N[C@H]1C[C@@H](NC(=N)N)[C@H](Oc2ccc3nc(N)[nH]c3c2)C[C@@H]1Oc1ccc2nc(N)[nH]c2c1 on Furin (Homo sapiens, UniProt P09958)?
100000 nM

# value lookup — system Furin (Homo sapiens, UniProt P09958), readout Ki, item NC(N)=Nc1ccc(N[C@H]2C[C@@H](N=C(N)N)[C@H](Oc3ccc(N=C(N)N)c4ccccc34)C[C@@H]2Oc2ccc(N=C(N)N)c3ccccc23)c2ccccc12
423 nM

Notebook entry, Furin (Homo sapiens, UniProt P09958) assay: Ki of NC(N)=Nc1ccc(O[C@H]2C[C@@H](Oc3ccc(N=C(N)N)c4ccccc34)[C@H](N=C(N)N)C[C@@H]2N=C(N)N)c2ccccc12 = ?
69 nM

Give the reported Ki for NC(N)=Nc1ccccc1O[C@H]1C[C@@H](Oc2ccccc2N=C(N)N)[C@H](N=C(N)N)C[C@@H]1N=C(N)N (system: Furin (Homo sapiens, UniProt P09958)).
100000 nM

What measured Ki is associated with NC(N)=Nc1cccc(NC(=O)O[C@H]2C[C@@H](OC(=O)Nc3cccc(N=C(N)N)c3)[C@H](N=C(N)N)C[C@@H]2N=C(N)N)c1 on Furin (Homo sapiens, UniProt P09958)?
1770 nM

Tell me reported Ki for N=C(N)Nc1ccc(O[C@H]2C[C@@H](Oc3ccc(NC(=N)N)cc3NC(=N)N)[C@H](NC(=N)N)C[C@@H]2NC(=N)N)c(NC(=N)N)c1 , tested with Furin (Homo sapiens, UniProt P09958).
169 nM

Recall the recorded Ki for N=C(N)Nc1ccc(O[C@H]2C[C@@H](Oc3ccc(NC(=N)N)c4ccccc34)[C@H](NC(=N)N)C[C@@H]2NC(=N)N)cc1 with Furin (Homo sapiens, UniProt P09958) and state it.
6 nM

Could you share what Ki was measured for NC(N)=Nc1ccc(O[C@H]2C[C@@H](Oc3ccc(N=C(N)N)cc3)[C@H](N=C(N)N)C[C@@H]2N=C(N)N)cc1 , tested on Furin (Homo sapiens, UniProt P09958)?
12 nM

Record NC(N)=Nc1cccnc1O[C@H]1C[C@@H](Oc2ncccc2N=C(N)N)[C@H](N=C(N)N)C[C@@H]1N=C(N)N : what is its Ki with Furin (Homo sapiens, UniProt P09958)?
100000 nM

Lab note: need Ki with Furin (Homo sapiens, UniProt P09958) for entry NC(N)=N[C@H]1C[C@@H](N=C(N)N)[C@H](Oc2ccccn2)C[C@@H]1Oc1ccccn1 , please look it up.
100000 nM

Requested read-out Ki, target or system Furin (Homo sapiens, UniProt P09958), entry N=C(N)Nc1ccc(O[C@H]2C[C@@H](Oc3ccc(NC(=N)N)c4ccccc34)[C@H](NC(=N)N)C[C@@H]2NC(=N)N)c(N)c1
22 nM

Give the reported Ki for NC(N)=Nc1ccc(N[C@H]2C[C@@H](N=C(N)N)[C@H](Oc3ccc(N=C(N)N)cc3)C[C@@H]2Oc2ccc(N=C(N)N)cc2)cc1 (system: Furin (Homo sapiens, UniProt P09958)).
46 nM

// fetch Furin (Homo sapiens, UniProt P09958) Ki for NC(N)=Nc1cnccc1O[C@H]1C[C@@H](Oc2ccncc2N=C(N)N)[C@H](N=C(N)N)C[C@@H]1N=C(N)N
100000 nM

What is its Ki for Furin (Homo sapiens, UniProt P09958)? Entry: NC(N)=Nc1ccc(O[C@H]2C[C@@H](Oc3ccc(N=C(N)N)c4ccccc34)[C@H](N=C(N)N)C[C@@H]2N=C(N)N)c(N=C(N)N)c1
404 nM
